B1: IQUB (parent)
chain: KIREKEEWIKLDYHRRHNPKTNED

variants of: B1; experiment: protein stability index of a GFP-peptide fusion (GPS, HEK-293T) (PSI 1-6); higher = more stable; details: c terminus: a fixed tail appended;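 note: lentivirally expressed fusions sorted by FACS into six bins by GFP to DsRed ratio, PSI derived from sequencing read proportions per bin multiplied by bin number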
recorded-metric: protein stability index

variant-descriptor: E6Y
observed-value: 2.88
//
variant-descriptor: E6N
observed-value: 4.52
//
variant-descriptor: I2Q
observed-value: 4.14
//
variant-descriptor: K1L
observed-value: 4.15
//
variant-descriptor: R15V
observed-value: 4.97
//
variant-descriptor: H17R
observed-value: 4.51
//
variant-descriptor: E6F
observed-value: 3.56
//
variant-descriptor: E7S
observed-value: 4.46
//
variant-descriptor: E23W
observed-value: 5.01
//
variant-descriptor: N22H
observed-value: 4.22
//
variant-descriptor: K20S
observed-value: 4.81
//
variant-descriptor: I2K
observed-value: 4.8
//
variant-descriptor: Y13N
observed-value: 5.41
//
variant-descriptor: W8A
observed-value: 5.18
//
variant-descriptor: K20P
observed-value: 5.07
//
variant-descriptor: N18C
observed-value: 3.99
//
variant-descriptor: K5A
observed-value: 3.99
//
variant-descriptor: R3K
observed-value: 4.67
//
variant-descriptor: I2H
observed-value: 4.91
//
variant-descriptor: I2G
observed-value: 5.25
//
variant-descriptor: T21S
observed-value: 4.76
//
variant-descriptor: K5G
observed-value: 4.6
//
variant-descriptor: D24M
observed-value: 3.88
//
variant-descriptor: E23A
observed-value: 4.52
//
variant-descriptor: E7G
observed-value: 3.8
//
variant-descriptor: R3A
observed-value: 5.05
//
variant-descriptor: E23S
observed-value: 4.25
//
variant-descriptor: N18A
observed-value: 4.32
//
variant-descriptor: R3T
observed-value: 4.61
//
variant-descriptor: Y13W
observed-value: 4.18
//
variant-descriptor: D12Q
observed-value: 4.55
//
variant-descriptor: R15H
observed-value: 4.36
//
variant-descriptor: K10N
observed-value: 4.48
//
variant-descriptor: H14Q
observed-value: 5.02
//
variant-descriptor: R3W
observed-value: 4.21
//
variant-descriptor: K1H
observed-value: 4.62
//
variant-descriptor: N22W
observed-value: 2.8
//
variant-descriptor: N22S
observed-value: 4.72
//
variant-descriptor: Y13L
observed-value: 4.8
//
variant-descriptor: P19L
observed-value: 3.91
//
variant-descriptor: D12G
observed-value: 4.51
//
variant-descriptor: R15A
observed-value: 5.05
//
variant-descriptor: L11T
observed-value: 5.2
//
variant-descriptor: E7P
observed-value: 3.6
//
variant-descriptor: D12R
observed-value: 4.21
//
variant-descriptor: P19E
observed-value: 4.65
//
variant-descriptor: L11D
observed-value: 4.93
//
variant-descriptor: H14Y
observed-value: 4.41
//
variant-descriptor: K10R
observed-value: 4.92
